# Tested on: MDA-MB-435
# ASSAY EXPLANATION: NCI tumour cell line growth inhibition, 48 h
TGI vs 30 µM: at or above is T, below is F.

COMPOUND: CCCCCCNC(=O)c1cc(NCc2cc(O)ccc2O)ccc1O
TARGET DESC: MDA-MB-435
CATEGORY LABEL: F
--
COMPOUND: Nc1ccc(-c2nc3cc(F)ccc3s2)cc1Cl
TARGET DESC: MDA-MB-435
CATEGORY LABEL: T
--
COMPOUND: COc1cc(/C=C2\C[C@H]3[C@@H]4CCc5cc(O)ccc5[C@H]4CC[C@]3(C)C2=O)cc(OC)c1OC
TARGET DESC: MDA-MB-435
CATEGORY LABEL: T
--
COMPOUND: COc1ccccc1/C(=N\OCCC(=O)O)c1cccs1
TARGET DESC: MDA-MB-435
CATEGORY LABEL: T
--
COMPOUND: C=C(c1nc2ccc(Cl)cc2[nH]c1=O)C(O)c1ccc(C(O)C(=O)c2nc3ccc(Cl)cc3[nH]c2=O)cc1 (stereo not drawn)
TARGET DESC: MDA-MB-435
CATEGORY LABEL: T
--
COMPOUND: C=COCCCOc1ccccc1
TARGET DESC: MDA-MB-435
CATEGORY LABEL: T
--
COMPOUND: O=c1cnn(C/C=C/CBr)c(=O)[nH]1
TARGET DESC: MDA-MB-435
CATEGORY LABEL: T
--
COMPOUND: CCN(CC)CCC(=O)/C=C/c1ccccc1
TARGET DESC: MDA-MB-435
CATEGORY LABEL: F
--
COMPOUND: CC(C)(C)NC(NC(C)(C)C)=C(/C=C(/Cl)[N+](=O)[O-])[N+](=O)[O-]
TARGET DESC: MDA-MB-435
CATEGORY LABEL: T
--
COMPOUND: CC(CCC=O)CCOCc1ccccc1 (stereo not drawn)
TARGET DESC: MDA-MB-435
CATEGORY LABEL: T
--
COMPOUND: COC(=O)c1ccc(C(=O)NC(Cc2ccc(Oc3cc(CC(NC(=O)c4ccccc4C(=O)OC)C(=O)OC)ccc3OC)cc2)C(=O)OC)cc1 (stereo not drawn)
TARGET DESC: MDA-MB-435
CATEGORY LABEL: T
--
COMPOUND: CC(C)C(=O)[C@@]1(C)SC[C@H]2CCN=C21
TARGET DESC: MDA-MB-435
CATEGORY LABEL: T
--
COMPOUND: CC(C)(C)OC(=O)N1CCc2[nH][nH]c(=O)c2C1
TARGET DESC: MDA-MB-435
CATEGORY LABEL: T
--
COMPOUND: Oc1cn(-c2ccc(Cl)cc2)nc1-c1nnc(-c2ccccc2)o1
TARGET DESC: MDA-MB-435
CATEGORY LABEL: F
--
COMPOUND: COc1cnc2c(c1)C(=O)c1c-2n(CCCNC(C)C)c(=O)c2cc(Cl)ccc12
TARGET DESC: MDA-MB-435
CATEGORY LABEL: F
--
COMPOUND: CCCCS(=O)CCC(N)P(=O)(O)O (stereo not drawn)
TARGET DESC: MDA-MB-435
CATEGORY LABEL: T
--
COMPOUND: Cc1cc2c(cc1Cl)SC(NS(=O)(=O)c1ccc(Cl)cc1)=NS2(=O)=O
TARGET DESC: MDA-MB-435
CATEGORY LABEL: T
--
COMPOUND: COc1ccc2c(c1)CCCC(Br)C2=O (stereo not drawn)
TARGET DESC: MDA-MB-435
CATEGORY LABEL: F
--
COMPOUND: Clc1nc2ccccc2nc1CI
TARGET DESC: MDA-MB-435
CATEGORY LABEL: F
--
COMPOUND: COC(=O)c1cc2c3c(ccc2[nH]1)N(C(=O)c1cc2cc(OC)c(OC)c(OC)c2[nH]1)CC3CCl (stereo not drawn)
TARGET DESC: MDA-MB-435
CATEGORY LABEL: T
